# credit: PubChem BioAssay

# assay.system: Voltage-gated potassium channel subunit beta-2 (Rattus norvegicus)
# method: inhibitors of rat Kvbeta2 reductase activity – biochemical, NADPH fluorescence, primary screen (AID 622);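 further: slope of raw intensity against log time taken from 70 to 1610 s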
# experimental.setup: recombinant KvBeta, 4-cyanobenzaldehyde reduction, at 10 µM, stronger effect = higher value
Assign label 1 whenever fluorescence slope does not fall below -0.5; assign label 0 whenever it does.

1) CN(CCc1ccccn1)c1ncnc2[nH]ncc12 ... label 1
2) O=C(Nc1ccccc1N1CCN(c2ccc(F)cc2)CC1)c1ccccc1 ... label 1
3) CCc1nc2scc(-c3ccccc3)c2c(=O)n1N ... label 1
4) O=C(Cn1nc(Cc2ccncc2)c2ccccc2c1=O)N1CCN(C(=O)c2ccco2)CC1 ... label 0
5) Cc1cc(NC(=O)c2cc3ccccc3o2)cc(C)c1OCC(=O)N1CCOCC1 ... label 0
6) Cc1noc(/C=C/N(C)C)c1S(=O)(=O)N1CCCC(C(=O)N2CCc3ccccc32)C1 (centres undefined) ... label 0

====

nuclei count: recorded values
# method: reduction of polyQ htt aggregates in cells – imaging, exon1htt(103Q)mCFP cells, high-content imaging, primary screen (AID 483);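 further: compound exposure lasted 3 days before fixation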;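 on nuclei count: percent of the per-plate median nuclei count of sample wells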
# experimental.setup: exon1htt(103Q)mCFP cell line, aggregate imaging, at 2 µM; measured here: cell count, toxicity
value.type: nuclei count (%)

1. COCCCN(C(C)=O)c1nc(-c2ccccc2)cs1 ... 90.9
2. CCOC(=O)c1[nH]c(C)c(C(=O)Nc2ccc(Cl)cc2)c1C ... 89.1
3. COc1ccccc1Oc1coc2c(CN3CCN(C)CC3)c(O)ccc2c1=O ... 107
4. Cc1ccc(C(=O)N2CCCC(c3nc4c(nnn4Cc4ccccc4)c(=O)[nH]3)C2)cc1 (stereo not given) ... 118
5. CC(=O)Nc1c(C(=O)O)[nH]c2ccccc12 ... 96
6. Cc1ccc(NC(=O)c2ccccc2F)nc1 ... 123
7. CCN(CC)CCCN1C(=O)C(O)=C(C(=O)c2ccco2)C1c1ccc(C)o1 (stereo not given) ... 106
8. Cc1cc(C)c(C)c(OCC(=O)NCC2CCCO2)c1 (stereo not given) ... 97.1
9. COc1ccc(-n2c(SCC#N)nc3ccccc3c2=O)cc1 ... 105
10. Cc1ccc2c(c1)NC(=O)C(CC(=O)NC1CCCCC1C)O2 (stereo not given) ... 86.3
11. COc1ccccc1N1CCN(C(=O)CN(Cc2ccc(Cl)cc2)S(C)(=O)=O)CC1 ... 112
12. C=CCOc1ccc(/C(CC)=N/O)c(OC)c1 ... 54.4
13. COc1cc2c(C)nc(C)c(C#N)c2cc1OC ... 85.6
14. Cc1noc(C)c1CSc1nnc2n(-c3ccccc3)c(=O)c3ccccc3n12 ... 85.8
15. O=C(Nc1ccc(NC(=O)c2ccco2)nc1)c1cccnc1 ... 93.2
16. Cc1oc(-c2ccccc2Cl)nc1CSCC(=O)N1CCCC1 ... 91.6
17. COc1cc(NS(=O)(=O)N2CCCC2)cc(OC)c1OC ... 95.3
18. COc1cc2c(cc1OC)C(c1cccnc1)CC(=O)N2 (stereo not given) ... 71.7
19. COc1ccccc1CC1(C)NC(=O)N(CC(=O)Nc2cc(C)on2)C1=O (stereo not given) ... 88.8
20. COc1cc(C(=O)Nc2cc(C)ccn2)cc(OC)c1OC ... 98.4

====

# assay.system: Voltage-gated potassium channel subunit beta-2 (Rattus norvegicus)
# method: inhibitors of rat Kvbeta2 reductase activity – biochemical, NADPH fluorescence, primary screen (AID 622);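 further: slope of raw intensity against log time taken from 70 to 1610 s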
# experimental.setup: recombinant KvBeta, 4-cyanobenzaldehyde reduction, at 10 µM, stronger effect = higher value
fluorescence slope: recorded values
value.type: fluorescence slope

1) Cn1c(Cc2ccccc2)nnc1SCC(=O)N1CCOCC1 ... -0.276
2) CCOc1ccc(NCc2nnc(SCC(=O)Nc3cc(C)on3)n2-c2ccccc2OC)cc1 ... -0.452
3) COc1ccc(NC(=O)COc2ccccc2)c(OC)c1 ... -0.418
4) Cc1nn(S(=O)(=O)N2CCCCC2)c(C)c1Br ... -0.291

====

inhibition of aggregation: recorded values
# method: reduction of polyQ htt aggregates in cells – imaging, exon1htt(103Q)mCFP cells, high-content imaging, primary screen (AID 483);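 further: compound exposure lasted 3 days before fixation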
# experimental.setup: exon1htt(103Q)mCFP cell line, aggregate imaging, at 2 µM; stronger effect = higher value
value.type: inhibition of aggregation (%)

1. Cn1c(C(=O)N2CCN(C(=O)c3ccco3)CC2)cc2c(=O)n3ccccc3nc21 ... -13.8
2. O=C(c1ncn[nH]1)N1CCN(c2nc(-c3ccccc3)cs2)CC1 ... 2.5
3. O=C(OCC(=O)c1ccc[nH]1)c1ccc(S(=O)(=O)N2CCCCC2)cc1 ... 1.5
4. O=C(Oc1ccc2ccc(OC(=O)N3CCOCC3)cc2c1)N1CCOCC1 ... -8.9
5. COc1cccc(NC(=O)c2ccco2)c1 ... 7
6. CCC(CO)Nc1ncnc2c1cnn2-c1ccc(Cl)cc1 (stereo unspecified) ... 7.5
7. COC(=O)c1cc(OC)c(OCc2cc(C(=O)OC)oc2C)c(OC)c1 ... -6.3
8. COc1ccc(OC)c(NC(=O)CCN2CCC(C)CC2)c1 ... 15.7
9. CCCCCSc1nc2c(cnn2-c2ccccc2)c(=O)[nH]1 ... -3.4
10. CCOC(=O)C1CCN(c2cc(C)nc3cc(-c4cccc(F)c4)nn23)CC1 ... 12
11. COCCn1nnnc1C(c1cc2cc(OC)ccc2[nH]c1=O)N1CCC(Cc2ccccc2)CC1 (stereo unspecified) ... -2.5
12. COC(=O)c1ccc(CSc2nnc(-c3ccncc3)o2)o1 ... -8
13. COC(=O)CSc1ncccc1-c1nc2ccccc2[nH]1 ... -2
14. CCc1nc(C)ccc1OCC(=O)O ... -30
15. N#CC1=C(N)Oc2cc(O)ccc2C1C1CCCCC1 (stereo unspecified) ... 18.3
16. CCOc1ccc(N(CC(=O)NC2CCCCC2)S(=O)(=O)c2c(C)noc2C)cc1 ... 33.7
17. O=C(CCn1c(=S)[nH]c2ccccc2c1=O)NCC1CCCO1 (stereo unspecified) ... 6
18. COc1cccc(/C=N/n2c(-c3ccco3)nc3ccccc3c2=O)c1 ... -10.2
19. COc1ccc(CC(=O)Nc2c3c(nn2-c2cccc(Cl)c2)CS(=O)C3)cc1 (stereo unspecified) ... -8.1
20. O=C(CN1CCN(c2nc(-c3ccc(F)cc3)cs2)CC1)NCc1ccc2c(c1)OCO2 ... 5.2
21. O=C1N(CCCCN2C(=O)C3(OCCO3)c3ccccc32)c2ccccc2C12OCCO2 ... -8.4
22. O=C1CC(c2ccccc2)CC(O)=C1C=NCCN1CCOCC1 (stereo unspecified) ... 24.1
23. CC1=C(C(=O)OC2CCCC2)C(c2ccc(C)o2)C2=C(CC(c3cccs3)CC2=O)N1 (stereo unspecified) ... -7.2
24. CN(c1ccccc1)S(=O)(=O)c1ccc(C(=O)OCC(=O)N2CCOCC2)cc1 ... 8.2
25. CC(C)c1ccc(-c2nc(N3CCOCC3)[nH]c(=O)c2C#N)cc1 ... -12
26. COCCn1nnnc1C(C(C)C)N1CCN(C(=O)c2ccco2)CC1 (stereo unspecified) ... 10

====

# method: reduction of polyQ htt aggregates in cells – imaging, exon1htt(103Q)mCFP cells, high-content imaging, primary screen (AID 483);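 further: compound exposure lasted 3 days before fixation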;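 on nuclei count: percent of the per-plate median nuclei count of sample wells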
# experimental.setup: exon1htt(103Q)mCFP cell line, aggregate imaging, at 2 µM; measured here: cell count, toxicity
value.type: nuclei count (%)

1. CCn1c(=N)n(CC(O)c2ccco2)c2ccccc21 (centres undefined) ... 87.8
2. COc1cccc(C2CC(c3ccc(C)cc3)n3nc(N)nc3N2)c1 (centres undefined) ... 106
3. COc1ccc(C2C3=C(OC(C)=O)c4ccccc4C3=Nc3c2c(=O)n(C)c(=O)n3C)cc1 (centres undefined) ... 103
4. COc1cc2c(cc1OC)CN(C(=O)CSc1nc3[nH]ncc3c(=O)n1-c1ccccc1)CC2 ... 86.9

====

# assay.system: Voltage-gated potassium channel subunit beta-2 (Rattus norvegicus) (UniProt P62483)
# Sequence (P62483 whole entry, looked up): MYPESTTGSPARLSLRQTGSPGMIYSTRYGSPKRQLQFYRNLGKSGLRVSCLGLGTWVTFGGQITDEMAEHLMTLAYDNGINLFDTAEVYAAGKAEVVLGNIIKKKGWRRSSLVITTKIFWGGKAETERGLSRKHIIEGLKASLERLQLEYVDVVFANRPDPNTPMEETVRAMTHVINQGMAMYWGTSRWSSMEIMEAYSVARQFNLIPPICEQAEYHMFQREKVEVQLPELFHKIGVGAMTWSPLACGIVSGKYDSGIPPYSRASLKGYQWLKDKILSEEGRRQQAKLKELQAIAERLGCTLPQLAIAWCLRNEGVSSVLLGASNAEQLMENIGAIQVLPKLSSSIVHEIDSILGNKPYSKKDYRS
# method: enhancers of rat Kvbeta2 NADPH turnover – biochemical, NADPH fluorescence, primary screen (AID 623);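 further: fluorescence intensity change per second fitted from 20 to 320 s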
# experimental.setup: Recombinant KvBeta, NADPH fluorescence decrease slope, 10 min; at 10 µM; stronger effect = lower value
value.type: NADPH fluorescence slope

1) Clc1ccc2nc(N3CCCCC3)[nH]c2c1 ... -6.8e-05
2) CCOC(=O)c1c(N)sn(-c2ccccc2)c1=S ... -5.3e-05
3) O=S(=O)(NC1CCCCC1NS(=O)(=O)c1ccc(F)cc1)c1ccc(F)cc1 (stereo unspecified) ... -3.7e-06
4) CCCCCCn1c(SCC(=O)OC)nc2c1c(=O)[nH]c(=O)n2C ... -5.2e-05
5) COCCOC(=O)c1c(C)oc2ccc(NS(=O)(=O)c3ccc(F)cc3)cc12 ... 2.2e-06
6) CC(=O)c1ccc(-c2nc3ccccc3n2C)o1 ... 5.6e-07
7) COc1ccc(CCNS(=O)(=O)c2ccc3oc(C(=O)O)c(C)c3c2)cc1OC ... 6.2e-05
8) Cn1c(=O)[nH]c(=O)c2c1nc(CN1CCN(c3cccc(Cl)c3)CC1)n2CCc1ccccc1 ... 8.1e-06
9) CC1CCN(C(=O)Cn2cc3c(n2)CCCC3)CC1 ... -7.4e-06
10) CC(C)C1C2=C(CC(C)(C)CC2=O)ON1c1ccccc1 (stereo unspecified) ... -4.4e-05
11) CCCCOc1ccc(S(=O)(=O)n2c(C)nc3ccccc32)cc1 ... 1.3e-05
